Test system: HBL-100
Experiment: MTT cell viability assay, HBL-100
Assay type: cell-based, human
Details: Homo sapiens; HBL-100, MTT, 72 h of treatment; read-out: IC50 Values (Mean ± SD)
List of IC50 values.
REPORTED PROPERTY: IC50 (µM)

>  <COMPOUND>
COC(=O)[C@]12CCC(C(C)C)C1C1CCC3[C@@]4(C)C[C@@H](C#N)C[C@H](O)C4CC[C@@]3(C)[C@]1(C)CC2 (stereo partly drawn) [compound 19]

>  <REPORTED PROPERTY>
IC50

>  <RESULT UNITS>
µM

>  <REPORTED>
16

$$$$
>  <COMPOUND>
COc1cccc2c1C(=O)c1c(O)c3c(c(O)c1C2=O)C[C@@](O)(C(=O)CO)C[C@@H]3O[C@H]1C[C@H](N)[C@H](O)[C@H](C)O1 [Dox, doxorubicin, reference compound]

>  <REPORTED PROPERTY>
IC50

>  <RESULT UNITS>
µM

>  <REPORTED>
0.4

$$$$
>  <COMPOUND>
COC(=O)[C@]12CCC(C(C)C)C1C1CCC3[C@@](C)(CCC#N)C(C(=O)CBr)CC[C@@]3(C)[C@]1(C)CC2 (stereo partly drawn) [compound 30]

>  <REPORTED PROPERTY>
IC50

>  <RESULT UNITS>
µM

>  <REPORTED>
3.6

$$$$
>  <COMPOUND>
COC(=O)[C@]12CC[C@@H](C(C)C)[C@@H]1[C@H]1CC[C@@H]3[C@@](C)(CCC#N)[C@H](C(=O)C(Br)Br)CC[C@@]3(C)[C@]1(C)CC2 [compound 31]

>  <REPORTED PROPERTY>
IC50

>  <RESULT UNITS>
µM

>  <REPORTED>
1

$$$$
>  <COMPOUND>
C=C1C[C@H](C#N)C[C@@]2(C)C1CC[C@]1(C)C2CCC2C3C(C(C)C)CC[C@]3(CO)CC[C@]21C (stereo partly drawn) [compound 12]

>  <REPORTED PROPERTY>
IC50

>  <RESULT UNITS>
µM

>  <REPORTED>
36.6

$$$$
>  <COMPOUND>
CC(C)C1CC[C@]2(CO)CC[C@]3(C)C(CCC4[C@@]5(C)CC(C#N)=CC(=O)C5CC[C@]43C)C12 (stereo partly drawn) [compound 14]

>  <REPORTED PROPERTY>
IC50

>  <RESULT UNITS>
µM

>  <REPORTED>
46.9

$$$$

----------
List of melting point values.

>  <COMPOUND>
CC(C)C1CC[C@]2(CO)CC[C@]3(C)C(CCC4[C@@]5(C)C[C@@H](C#N)CC(=O)C5CC[C@]43C)C12 (stereo partly drawn)

>  <melting point (°C)>
166.6

$$$$
>  <COMPOUND>
C=C1C[C@H](C#N)C[C@@]2(C)C1CC[C@]1(C)C2CCC2C3C(C(C)C)CC[C@]3(C(=O)OC)CC[C@]21C (stereo partly drawn)

>  <melting point (°C)>
177.7

$$$$
>  <COMPOUND>
CC(C)C1CC[C@]2(COC(=O)c3ccccc3)CC[C@]3(C)C(CCC4[C@@](C)(CCC#N)C(C(=O)C(Br)Br)CC[C@]43C)C12 (stereo partly drawn)

>  <melting point (°C)>
107.7

$$$$
